# System Under Test: M. tuberculosis DNA gyrase (Mycobacterium tuberculosis, UniProt P9WG45+P9WG47)
# Sequence (P9WG47 whole entry): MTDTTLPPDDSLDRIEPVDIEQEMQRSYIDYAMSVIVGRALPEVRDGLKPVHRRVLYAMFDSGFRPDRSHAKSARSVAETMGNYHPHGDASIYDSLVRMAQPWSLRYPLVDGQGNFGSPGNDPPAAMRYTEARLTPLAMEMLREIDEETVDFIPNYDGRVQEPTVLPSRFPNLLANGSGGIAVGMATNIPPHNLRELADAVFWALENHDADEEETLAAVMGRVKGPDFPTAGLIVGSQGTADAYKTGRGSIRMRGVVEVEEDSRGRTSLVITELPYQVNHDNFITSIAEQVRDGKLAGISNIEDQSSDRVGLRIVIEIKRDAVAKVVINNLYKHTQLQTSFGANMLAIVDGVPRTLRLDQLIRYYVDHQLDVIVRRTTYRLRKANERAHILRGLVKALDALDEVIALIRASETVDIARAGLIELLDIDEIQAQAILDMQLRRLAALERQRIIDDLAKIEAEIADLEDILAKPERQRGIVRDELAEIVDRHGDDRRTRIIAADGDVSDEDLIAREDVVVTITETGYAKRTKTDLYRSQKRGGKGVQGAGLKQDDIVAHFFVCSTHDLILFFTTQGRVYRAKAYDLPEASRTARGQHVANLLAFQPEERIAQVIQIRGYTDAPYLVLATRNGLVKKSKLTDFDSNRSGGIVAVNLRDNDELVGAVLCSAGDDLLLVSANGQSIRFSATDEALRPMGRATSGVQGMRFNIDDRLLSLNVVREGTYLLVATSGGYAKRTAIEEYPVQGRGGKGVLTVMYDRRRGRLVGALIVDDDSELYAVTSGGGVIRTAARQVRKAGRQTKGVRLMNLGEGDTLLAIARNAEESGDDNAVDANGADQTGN
# Sequence (P9WG45 whole entry): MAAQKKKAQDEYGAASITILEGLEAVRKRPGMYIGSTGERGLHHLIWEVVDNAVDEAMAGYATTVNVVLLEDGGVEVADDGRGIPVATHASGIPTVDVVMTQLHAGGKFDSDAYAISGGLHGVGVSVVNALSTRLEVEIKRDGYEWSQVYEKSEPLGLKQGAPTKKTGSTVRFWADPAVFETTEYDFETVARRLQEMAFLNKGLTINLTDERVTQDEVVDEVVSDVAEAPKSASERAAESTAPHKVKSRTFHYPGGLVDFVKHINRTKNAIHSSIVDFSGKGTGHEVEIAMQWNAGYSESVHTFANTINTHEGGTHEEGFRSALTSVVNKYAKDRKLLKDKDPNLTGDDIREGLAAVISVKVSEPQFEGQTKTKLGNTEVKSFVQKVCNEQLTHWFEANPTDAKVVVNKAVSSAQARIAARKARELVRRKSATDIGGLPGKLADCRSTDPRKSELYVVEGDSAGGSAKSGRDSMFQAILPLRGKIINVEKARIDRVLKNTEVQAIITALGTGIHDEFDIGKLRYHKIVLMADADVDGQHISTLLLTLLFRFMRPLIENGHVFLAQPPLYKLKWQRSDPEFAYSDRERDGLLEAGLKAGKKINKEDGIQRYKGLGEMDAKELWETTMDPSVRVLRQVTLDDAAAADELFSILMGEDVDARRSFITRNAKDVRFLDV
# Assay Method Text: biochemical
Property Name: IC50
Just so you know, I need the unit written after the number.

>>> assay_result("CCCCCCCCN1CCN(c2cc3c(cc2F)c(=O)c(C(=O)O)cn3C2CC2)CC1")
"135 µM"

Batch of 3 compounds: report IC50 for each.
1. CCCCCN1CCN(c2cc3c(cc2F)c(=O)c(C(=O)O)cn3C2CC2)CC1
2. CCCCCCCCCCCCCCCCN1CCN(c2c(F)cc3c(=O)c(C(=O)O)cn(C4CC4)c3c2OC)CC1
3. CCCCCCCCCCN1CCN(c2cc3c(cc2F)c(=O)c(C(=O)O)cn3C2CC2)CC1

Result:
1. 76 µM
2. 121 µM
3. 120 µM

* * *

# System Under Test: M. tuberculosis DNA gyrase (Mycobacterium tuberculosis, UniProt P9WG45+P9WG47)
# Assay Method Text: biochemical
Property Name: pIC50
Answers are plain numbers, as −log10 of the molar value.

Solved cases (3 shown):
>>> assay_result("CCCCCCCCN1CCN(c2c(F)cc3c(=O)c(C(=O)O)cn(C4CC4)c3c2OC)CC1")
3.71
>>> assay_result("CCCCCCCCCCN1CCN(c2c(F)cc3c(=O)c(C(=O)O)cn(C4CC4)c3c2OC)CC1")
3.82
>>> assay_result("CCCCCN1CCN(c2c(F)cc3c(=O)c(C(=O)O)cn(C4CC4)c3c2OC)CC1")
4.22

For the next question, use this compound.
Problem: GET /values?readout=pIC50&system=M. tuberculosis DNA gyrase (Mycobacterium tuberculosis, UniProt P9WG45+P9WG47)&item= CCCCCCCCCCCCCCCCN1CCN(c2cc3c(cc2F)c(=O)c(C(=O)O)cn3C2CC2)CC1
Result: 3.98
